System: Staphylococcus aureus
measurementDescription: Antibacterial activity against Staphylococcus aureus NCTC 7447 at 5 mg/ml by agar disk diffusion assay
Format: functional
conditionDescription: read-out: DIZ
experimentalReadout: zone of inhibition at 5000 µg/mL (mm)
Reply numerically in mm, unit not repeated.

[ask] What value of zone of inhibition at 5000 µg/mL has been recorded for this entry: CCOc1ccc(N2C(=O)N(c3ccc4c(c3)Cc3ccccc3-4)C(=N)C2=S)cc1
[reply] 19

[ask] Reported zone of inhibition at 5000 µg/mL, compound N=C1C(=S)N(c2ccc(Cl)c(Cl)c2)C(=O)N1c1ccc(Cl)cc1 : ____
[reply] 16

[ask] // zone of inhibition at 5000 µg/mL lookup, key: N=C1C(=S)N(c2ccc(I)cc2)C(=O)N1c1ccc2c(c1)Cc1ccccc1-2
[reply] 13.5

[ask] So what does the record say about zone of inhibition at 5000 µg/mL for CCOc1ccc(N2C(=O)N(c3ccc4c(c3)Cc3ccccc3-4)C(=O)C2=S)cc1 ?
[reply] 15.5

[ask] Looking for the measured zone of inhibition at 5000 µg/mL of N=C1C(=S)N(c2ccc(I)cc2)C(=O)N1c1cc(Cl)c(Cl)cc1Cl , can you help?
[reply] 18

[ask] Which measured zone of inhibition at 5000 µg/mL value corresponds to N=C1C(=S)N(c2ccc(Br)cc2)C(=O)N1c1cc(Cl)c(Cl)cc1Cl ?
[reply] 16.5

Sourced from ChEMBL document CHEMBL1155362
